tested on: MARIMO; experiment: cell viability relative to vehicle control; higher = less cytotoxic; settings: 10 µM; SRSF2 genotype: SRSF2 P95H/wt;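 note: after 48 h exposure read by CellTiter-Glo luminescence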
Classification by cell viability follows these ranges: lo (below 80%), mid (80% to below 90%), hi (90% or more)

Prompt: Which band does COc1nc(C)nc(Cl)c1NC1=NCCN1 [Moxonidine] fall in?
Response: mid

Prompt: Which band does COC(=O)[C@H](Cc1ccccc1)NC(=O)[C@@H](N)CC(=O)O [Aspartame] fall in?
Response: hi

Prompt: Which band does Cc1cc(C)cc(C(=O)NOCCCCCC(=O)NO)c1 fall in?
Response: lo

Prompt: Which band does CCCCCCCCCCCCCCCCCCCC(=O)O [Arachidic acid] fall in?
Response: hi

Prompt: Which band does CC1=CCC[C@H](C)C(=O)C[C@@H](C(C)C)C(=O)C1 [Curdione] fall in?
Response: hi

###

Give measured cell viability for each item. Keep answers brief.
test system: OCI-AML2; test: cell viability relative to vehicle control; higher = less cytotoxic; details: 10 µM; SRSF2 genotype: wt/wt
Express your answer as a number followed by its unit.

So for Cc1ccc(-c2csc(NC(=O)c3ccccc3)n2)c(C)c1 , the logged cell viability turned out to be 66.8%

So for CO[C@H]1C[C@@H]2CC[C@@H](C)[C@@](O)(O2)C(=O)C(=O)N2CCCC[C@H]2C(=O)O[C@H]([C@H](C)C[C@@H]2CC[C@@H](OCCO)[C@H](OC)C2)CC(=O)[C@H](C)/C=C(\C)[C@@H](O)[C@@H](OC)C(=O)[C@H](C)C[C@H](C)/C=C/C=C/C=C/1C [Everolimus (RAD001)] , the logged cell viability turned out to be 61.6%

So for COc1cc2ncnc(Nc3ccc(Cl)cc3F)c2cc1OC , the logged cell viability turned out to be 92.1%

So for Nc1ncnc2c1ncn2C1OC(COP(=O)(O)OP(=O)(O)O)C(O)C1O (centres undefined) , the logged cell viability turned out to be 99.9%

###

Give measured cell viability for each item. Keep answers brief.
tested on: MARIMO; assay: cell viability relative to vehicle control; higher = less cytotoxic; settings: 10 µM; SRSF2 genotype: SRSF2 P95H/wt
Where a name gives a salt, the structure may show the parent alone.

So for C[S+](CC[C@H](N)C(=O)[O-])C[C@H]1O[C@@H](n2cnc3c(N)ncnc32)[C@H](O)[C@@H]1O (some centres not stated) [Ademetionine disulfate tosylate] , the logged cell viability turned out to be 102%

So for CCNC(=O)C#Cc1ccc2c(C(=Nc3ccc(CN(C)C)cc3)c3ccccc3)c(O)[nH]c2c1 , the logged cell viability turned out to be 26.7%

So for C[C@H](CCC(=O)O)[C@H]1CC[C@H]2[C@@H]3C[C@H](O)[C@@H]4C[C@H](O)CC[C@]4(C)[C@H]3CC[C@]12C [Hyodeoxycholic acid (HDCA)] , the logged cell viability turned out to be 87.5%

So for COc1cc2nccc(Oc3ccc(NC(=O)NC4CC4)c(Cl)c3)c2cc1C(N)=O [E7080 (Lenvatinib)] , the logged cell viability turned out to be 83.9%

So for COc1cc2c[n+](C)c3c4cc5c(cc4ccc3c2cc1OC)OCO5 [Nitidine Chloride] , the logged cell viability turned out to be 38.6%

So for Cc1ccc(NC(=O)c2ccc(CN3CCN(C)CC3)cc2)cc1Nc1nc(-c2cccnc2)cs1 [Masitinib (AB1010)] , the logged cell viability turned out to be 72.5%

So for Clc1cccc(CN=C2Nc3ccccc3NC23CCNCC3)c1 [Liproxstatin-1] , the logged cell viability turned out to be 73%

###

Give measured cell viability for each item. Keep answers brief.
system: K562; test: cell viability relative to vehicle control; higher = less cytotoxic; settings: 10 µM; SRSF2 genotype: SRSF2 wt/wt
// note: answer is a bare numeric in %

CC(=O)Oc1cc(C)c(OC(C)=O)c2ccccc12 [Menadiol Diacetate] on K562 gives cell viability = 95.2

Cn1c2ccccc2c2c3c(c4c5ccccc5n(CCC#N)c4c21)CNC3=O on K562 gives cell viability = 97.7

C[C@H](C[C@H](O)[C@@H](O)C(C)(C)O)C1=C2C[C@H](O)[C@H]3[C@@]4(C)CCC(=O)C(C)(C)[C@@H]4CC[C@]3(C)[C@@]2(C)CC1 on K562 gives cell viability = 89.8

Fc1ccc2c(/C=C/c3nn[nH]n3)c[nH]c2c1 on K562 gives cell viability = 98.6

Cc1c(Nc2ncccc2C(=O)O)cccc1C(F)(F)F on K562 gives cell viability = 93.9

O=C(Nc1cccc(Nc2ncc(Br)c(NCCc3cnc[nH]3)n2)c1)N1CCCC1 on K562 gives cell viability = 47.1

CCN1CCC[C@H]1CNC(=O)c1cc(S(N)(=O)=O)ccc1OC [Levosulpiride (Levogastrol)] on K562 gives cell viability = 108

O=C(O)CC1CC(c2ccccc2)=NO1 (centres undefined) on K562 gives cell viability = 103

O=C(Cn1cnnn1)N[C@@H]1C(=O)N2C(C(=O)O)=C(CSc3nncs3)CS[C@H]12 [Ceftezole sodium] on K562 gives cell viability = 120

###

test system: OCI-AML2; assay: cell viability relative to vehicle control; higher = less cytotoxic; conditions: 10 µM; SRSF2 genotype: wt/wt
Give measured cell viability for each item. Keep answers brief.
// note: answer is a bare numeric in %

So for Cc1nc(C(=O)NCC(=O)O)c(O)c2ccc(Oc3ccccc3)cc12 [Roxadustat (FG-4592)] , the logged cell viability turned out to be 87.5

So for Cc1nc(Nc2n[nH]c3c2CN(C(=O)N[C@H](CN(C)C)c2ccccc2)C3(C)C)c2sccc2n1 , the logged cell viability turned out to be 10.7

So for NC(=O)c1cccc2cn(-c3ccc(C4CCCNC4)cc3)nc12 (stereo not given) [MK-4827(Niraparib)] , the logged cell viability turned out to be 51.5

So for COc1cccc(C=NCCN=Cc2cccc(OC)c2[O-])c1[O-].[Cl-].[Mn+3] , the logged cell viability turned out to be 101

So for CC1=CCC(=C(C)C)C(=O)CC(C)=CCC1 [Germacrone] , the logged cell viability turned out to be 101

###

system: MOLM14; experiment: cell viability relative to vehicle control; higher = less cytotoxic; conditions: 10 µM; SRSF2 genotype: SRSF2 P95H/wt
Where a name gives a salt, the structure may show the parent alone.
Decision: cell viability beneath 90% gives Fulfilled; cell viability meeting or exceeding 90% gives Not fulfilled.

Prompt: Quick check: cell viability of COc1cc2nc(N3CCCC3)nc(NCCCCCN3CCCC3)c2cc1OC under 90%?
Response: Fulfilled

Prompt: Quick check: cell viability of COc1ccc([C@@H]2CC(=O)c3c(O)cc(O[C@@H]4O[C@H](CO)[C@@H](O)[C@H](O)[C@H]4O[C@@H]4O[C@@H](C)[C@H](O)[C@@H](O)[C@H]4O)cc3O2)cc1 [Poncirin] under 90%?
Response: Not fulfilled

Prompt: Quick check: cell viability of CCCc1cc(C)[nH]c(=O)c1CNC(=O)c1cc(-c2ccc(N3CCN(C(C)C)CC3)nc2)cc2c1cnn2C(C)C under 90%?
Response: Fulfilled

Prompt: Quick check: cell viability of CN(C)c1ccc2c(c1)Sc1cc(N(C)C)ccc1N2 [TRx0237 (LMTX) mesylate] under 90%?
Response: Fulfilled

Prompt: Quick check: cell viability of O=C(O)c1cc(O)cc(Cl)c1 [3-chloro-5-hydroxybenzoic Acid] under 90%?
Response: Not fulfilled

Prompt: Quick check: cell viability of CC(C)(C)c1[nH]cnc1/C=c1\[nH]c(=O)/c(=C/c2ccccc2)[nH]c1=O [NPI-2358 (Plinabulin)] under 90%?
Response: Fulfilled

Prompt: Quick check: cell viability of OC[C@H]1NC[C@H](O)[C@@H](O)[C@@H]1O [1-Deoxynojirimycin] under 90%?
Response: Not fulfilled

Prompt: Quick check: cell viability of Cc1cnc(C(=O)NCCc2ccc(S(=O)(=O)NC(=O)NC3CCCCC3)cc2)cn1 [Glipizide (Glucotrol)] under 90%?
Response: Not fulfilled

Prompt: Quick check: cell viability of CCCOc1ccc(CCc2nc3cc(-c4c(C)noc4C)ccc3n2CCN2CCOCC2)cc1 under 90%?
Response: Fulfilled

Prompt: Quick check: cell viability of CCOCCn1c(C2CCN(CCc3ccc(C(C)(C)C(=O)O)cc3)CC2)nc2ccccc21 [Bilastine] under 90%?
Response: Not fulfilled

Prompt: Quick check: cell viability of CN1CCN(c2ccc3nc(-c4c(N)c5c(F)cccc5[nH]c4=O)[nH]c3c2)CC1 [Dovitinib Dilactic acid (TKI258 Dilactic aci] under 90%?
Response: Fulfilled

Prompt: Quick check: cell viability of COc1cc(C2Oc3ccc(C4Oc5cc(O)cc(O)c5C(=O)C4O)cc3OC2CO)ccc1O (stereo not given) [Isosilybin] under 90%?
Response: Not fulfilled

Prompt: Quick check: cell viability of COc1cc(/C=C/C(=O)O[C@H]2CC[C@]34C[C@]35CC[C@]3(C)[C@@H]([C@H](C)CCC=C(C)C)CC[C@@]3(C)[C@@H]5CC[C@H]4C2(C)C)ccc1O [Gamma-Oryzanol] under 90%?
Response: Not fulfilled

Prompt: Quick check: cell viability of Cc1nc2n(c(=O)c1CCN1CCC(c3noc4cc(F)ccc34)CC1)CCCC2 [Risperidone (Risperdal)] under 90%?
Response: Not fulfilled

Prompt: Quick check: cell viability of O=C1NC(=O)[C@@H](c2cn3c4c(cccc24)CCC3)[C@@H]1c1c[nH]c2ccccc12 [ARQ 197 (Tivantinib)] under 90%?
Response: Fulfilled

Prompt: Quick check: cell viability of C[C@@H](c1ncncc1F)[C@](O)(Cn1cncn1)c1ccc(F)cc1F [Voriconazole] under 90%?
Response: Not fulfilled

Prompt: Quick check: cell viability of C[C@@H]1CC[C@@]2(OC1)O[C@H]1C[C@H]3[C@@H]4CC=C5C[C@@H](O[C@@H]6O[C@H](CO)[C@@H](O)[C@H](O)[C@H]6O)CC[C@]5(C)[C@H]4CC[C@]3(C)[C@H]1[C@@H]2C [Trillin] under 90%?
Response: Fulfilled

Prompt: Quick check: cell viability of OCc1cc(C(O)CNCCCCCCOCCCCc2ccccc2)ccc1O (stereo not given) [Salmeterol] under 90%?
Response: Fulfilled

Prompt: Quick check: cell viability of CC=C(C)C(=O)OC1C(OC(C)=O)C2(CO)C(O)CC3(C)C(=CCC4C5(C)CCC(OC6OC(C(=O)O)C(OC7OC(CO)C(O)C(O)C7O)C(O)C6OC6OC(CO)C(O)C(O)C6O)C(C)(CO)C5CCC43C)C2CC1(C)C (stereo not given) [Escin] under 90%?
Response: Fulfilled

Prompt: Quick check: cell viability of CC(=O)O[C@H](CC(=O)O)C[N+](C)(C)C [O-Acetyl-L-carnitine hydrochloride] under 90%?
Response: Not fulfilled

Prompt: Quick check: cell viability of C=C(C)C1CC=C(C=NO)CC1 (stereo not given) [Perillartine] under 90%?
Response: Not fulfilled

Prompt: Quick check: cell viability of N#Cc1ccc2[nH]c(O)c(-c3ccc(CN4CCOCC4)cn3)c2c1 under 90%?
Response: Fulfilled

Prompt: Quick check: cell viability of COc1ccc2c(c1)c(C1=C(c3c[nH]c4ccccc34)C(=O)NC1=O)cn2CCCN(C)C under 90%?
Response: Fulfilled

Prompt: Quick check: cell viability of COc1ccc(S(=O)(=O)NCc2ccc(C(=O)NCCc3ccc(Cl)cn3)cc2)cc1 under 90%?
Response: Fulfilled

Prompt: Quick check: cell viability of Nc1nc2cc(-c3ccc4ncc(C(=O)N5CCOCC5)n4c3)ccc2o1 [Serabelisib (INK-1117,MLN-1117,TAK-117)] under 90%?
Response: Fulfilled

# credit: the supplement of paper PMC10981050
